experimental system: UniProt Q13470
Sequence (Q13470 whole entry, looked up): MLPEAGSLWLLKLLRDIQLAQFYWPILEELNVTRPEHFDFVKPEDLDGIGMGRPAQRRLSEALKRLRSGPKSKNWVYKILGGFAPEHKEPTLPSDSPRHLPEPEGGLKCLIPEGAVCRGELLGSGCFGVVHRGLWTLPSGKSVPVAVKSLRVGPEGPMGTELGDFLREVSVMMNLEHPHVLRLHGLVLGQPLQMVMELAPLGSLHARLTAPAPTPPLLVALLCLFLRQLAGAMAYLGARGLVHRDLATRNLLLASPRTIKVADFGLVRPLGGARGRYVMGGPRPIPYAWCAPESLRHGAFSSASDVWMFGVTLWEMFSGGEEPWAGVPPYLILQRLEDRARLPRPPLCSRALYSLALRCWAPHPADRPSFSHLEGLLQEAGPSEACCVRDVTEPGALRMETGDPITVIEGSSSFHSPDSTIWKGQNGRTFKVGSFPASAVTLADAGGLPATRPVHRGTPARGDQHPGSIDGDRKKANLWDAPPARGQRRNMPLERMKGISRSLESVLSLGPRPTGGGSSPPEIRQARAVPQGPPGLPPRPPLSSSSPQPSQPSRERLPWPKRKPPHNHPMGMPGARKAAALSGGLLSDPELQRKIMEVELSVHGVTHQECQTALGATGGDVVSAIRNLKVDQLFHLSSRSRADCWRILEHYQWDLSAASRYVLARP
assay: KINOMEscan competition binding
condition description: compound 10.0 µM
assay endpoint: kinase still bound, per cent of control (%)
Give bare numbers, in %.

[
  {
    "molecular string": "CN1CCN(c2ccc(C(=O)Nc3ncc4c(n3)N(C)c3ccccc3C(=O)N4C)cc2)CC1",
    "unit abbrev": "%",
    "recorded value": 92
  },
  {
    "molecular string": "COc1cc(N2CCN(C)CC2)ccc1Nc1ncc2c(n1)N1CCC[C@H]1CC(=O)N2",
    "unit abbrev": "%",
    "recorded value": 25
  },
  {
    "molecular string": "COc1cc(N2CCC(O)CC2)ccc1Nc1ncc2c(n1)N1CCc3cccc(c31)C(=O)N2C",
    "unit abbrev": "%",
    "recorded value": 5.8
  },
  {
    "molecular string": "COc1cc(N2CCN(C)CC2)ccc1Nc1ncc2c(n1)Nc1ccccc1NC2=O",
    "unit abbrev": "%",
    "recorded value": 100
  },
  {
    "molecular string": "O=C1NC(=S)S/C1=C\\c1ccc(-c2cncc3ccccc23)o1",
    "unit abbrev": "%",
    "recorded value": 8.4
  },
  {
    "molecular string": "CN1C(=O)c2ccccc2N(C)c2nc(Nc3ccc(N4CCC(O)CC4)cc3)ncc21",
    "unit abbrev": "%",
    "recorded value": 0.95
  },
  {
    "molecular string": "N=C1NC(=O)/C(=C/c2ccc(-c3cncc4ccccc34)o2)S1",
    "unit abbrev": "%",
    "recorded value": 14
  },
  {
    "molecular string": "CN1C(=O)c2ccccc2N(C)c2nc(NS(=O)(=O)c3ccc(N)cc3)ncc21",
    "unit abbrev": "%",
    "recorded value": 100
  },
  {
    "molecular string": "CN1C(=O)c2ccccc2N(C)c2nc(Nc3ccc(N4CCC(O)CC4)cn3)ncc21",
    "unit abbrev": "%",
    "recorded value": 0.6
  }
]

Prompt line: Report kinase still bound, per cent of control for `COc1cc(N(C)CCCO)ccc1Nc1ncc2c(n1)N(C1CCCC1)CCC(=O)N2C` please.
Response line: 31

====

experimental system: CHUK (human) (UniProt O15111)
Sequence (O15111 whole entry, looked up): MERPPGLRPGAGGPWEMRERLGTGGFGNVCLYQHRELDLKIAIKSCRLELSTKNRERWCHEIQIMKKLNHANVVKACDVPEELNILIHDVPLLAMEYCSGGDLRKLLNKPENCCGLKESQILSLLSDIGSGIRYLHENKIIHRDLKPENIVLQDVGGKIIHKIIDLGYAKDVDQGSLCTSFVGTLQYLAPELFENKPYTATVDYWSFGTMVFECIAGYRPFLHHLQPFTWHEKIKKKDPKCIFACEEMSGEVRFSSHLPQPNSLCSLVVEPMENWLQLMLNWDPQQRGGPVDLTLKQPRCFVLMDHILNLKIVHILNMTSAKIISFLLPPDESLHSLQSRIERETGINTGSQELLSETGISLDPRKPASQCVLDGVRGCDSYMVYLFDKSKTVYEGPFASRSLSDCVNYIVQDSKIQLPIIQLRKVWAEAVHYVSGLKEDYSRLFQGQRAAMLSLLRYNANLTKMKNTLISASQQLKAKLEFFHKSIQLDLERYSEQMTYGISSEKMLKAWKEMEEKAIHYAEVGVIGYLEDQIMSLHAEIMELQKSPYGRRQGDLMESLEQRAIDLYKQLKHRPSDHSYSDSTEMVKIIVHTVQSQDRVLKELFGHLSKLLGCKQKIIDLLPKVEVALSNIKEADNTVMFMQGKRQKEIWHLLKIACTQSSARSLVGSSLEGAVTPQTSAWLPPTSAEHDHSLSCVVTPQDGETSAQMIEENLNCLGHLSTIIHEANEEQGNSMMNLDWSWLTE
assay: KINOMEscan competition binding
condition description: compound 10.0 µM
Please go through the items and note down their kinase still bound, per cent of control.
Give bare numbers, in %.

[
  {
    "molecular string": "CSC1=NC(=O)/C(=C/c2c[nH]c(=O)c(-c3ccc(NS(C)(=O)=O)cc3)c2)S1",
    "kinase still bound, per cent of control, %": 19
  },
  {
    "molecular string": "CS(=O)(=O)Nc1ccc(-c2cncc(/C=C3\\SC(=N)NC3=O)c2)cc1",
    "kinase still bound, per cent of control, %": 19
  },
  {
    "molecular string": "CS(=O)(=O)Nc1ccc(-c2cc(/C=C3\\SC(=N)NC3=O)c[nH]c2=O)cc1",
    "kinase still bound, per cent of control, %": 15
  },
  {
    "molecular string": "N=C1NC(=O)/C(=C/c2ccc(-c3cncc4ccccc34)o2)S1",
    "kinase still bound, per cent of control, %": 1.4
  },
  {
    "molecular string": "N=C1NC(=O)/C(=C/c2ccc(-c3ccc(F)cc3)o2)S1",
    "kinase still bound, per cent of control, %": 27
  },
  {
    "molecular string": "CN1CCN(c2ccc(C(=O)Nc3ncc4c(n3)N(C)c3ccccc3C(=O)N4C)cc2)CC1",
    "kinase still bound, per cent of control, %": 83
  },
  {
    "molecular string": "N=C1NC(=O)/C(=C/c2c[nH]c(=O)c(-c3ccc(S(N)(=O)=O)cc3)c2)S1",
    "kinase still bound, per cent of control, %": 18
  },
  {
    "molecular string": "Nc1cccc(-c2cc(/C=C3\\SC(=O)NC3=O)c[nH]c2=O)c1",
    "kinase still bound, per cent of control, %": 30
  },
  {
    "molecular string": "CN1C(=O)c2ccccc2N(C)c2nc(Nc3ccc(N4CCC(O)CC4)cc3)ncc21",
    "kinase still bound, per cent of control, %": 79
  }
]

Now look at this one.
Prompt line: Return kinase still bound, per cent of control measured with CHUK (human) (UniProt O15111) given this compound: `N=C1NC(=O)/C(=C/c2ccc(-c3ccc(F)cc3O)o2)S1`
Response line: 15

====

experimental system: ULK3 (human)
assay: KINOMEscan competition binding
condition description: compound 10.0 µM
Kindly supply the reported kinase still bound, per cent of control values for the records listed here.
Express your answer as a number followed by its unit.

[
  {
    "molecular string": "COc1cc(N2CCN(C)CC2)ccc1Nc1ncc2c(n1)N(C)c1sccc1C(=O)N2C",
    "recorded value": "100%"
  },
  {
    "molecular string": "NS(=O)(=O)c1ccc(-c2ccc(/C=C3\\SC(=S)N(CC(=O)O)C3=O)o2)cc1",
    "recorded value": "26%"
  },
  {
    "molecular string": "COc1cc(N2CCN(C)CC2)ccc1Nc1ncc2c(n1)Nc1ccccc1NC2=O",
    "recorded value": "95%"
  },
  {
    "molecular string": "COc1cc(N2CCN(C)CC2)ccc1Nc1ncc2c(n1)N(C)c1ccccc1N(C)C2=O",
    "recorded value": "100%"
  }
]

Please examine the following record next.
Prompt line: Need kinase still bound, per cent of control of `CN1CCN(c2ccc(C(=O)Nc3ncc4c(n3)N(C)c3ccccc3C(=O)N4C)cc2)CC1` , thanks.
Response line: 100%

====

experimental system: IKBKB (human) (UniProt O14920)
Sequence (O14920 whole entry, looked up): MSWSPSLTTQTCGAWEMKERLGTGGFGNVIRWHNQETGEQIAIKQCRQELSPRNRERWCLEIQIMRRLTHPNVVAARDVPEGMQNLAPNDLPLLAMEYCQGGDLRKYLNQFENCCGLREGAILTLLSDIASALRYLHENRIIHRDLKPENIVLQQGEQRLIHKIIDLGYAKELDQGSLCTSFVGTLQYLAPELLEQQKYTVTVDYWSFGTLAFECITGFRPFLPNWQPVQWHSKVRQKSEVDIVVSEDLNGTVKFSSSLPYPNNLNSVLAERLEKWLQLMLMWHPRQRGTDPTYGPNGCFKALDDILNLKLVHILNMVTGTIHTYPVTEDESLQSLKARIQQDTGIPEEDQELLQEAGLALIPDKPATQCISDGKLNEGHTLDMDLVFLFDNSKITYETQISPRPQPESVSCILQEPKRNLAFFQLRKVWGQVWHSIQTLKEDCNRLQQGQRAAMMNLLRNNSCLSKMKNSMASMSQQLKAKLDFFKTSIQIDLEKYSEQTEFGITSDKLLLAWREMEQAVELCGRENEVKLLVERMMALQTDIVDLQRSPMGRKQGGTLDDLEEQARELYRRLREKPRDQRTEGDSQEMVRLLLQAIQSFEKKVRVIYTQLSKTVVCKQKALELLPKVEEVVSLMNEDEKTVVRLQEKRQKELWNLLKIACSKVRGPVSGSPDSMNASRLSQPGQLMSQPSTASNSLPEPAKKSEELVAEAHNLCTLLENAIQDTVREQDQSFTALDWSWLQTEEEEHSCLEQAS
assay: KINOMEscan competition binding
condition description: compound 10.0 µM
Exercise: state measured kinase still bound, per cent of control for each of the molecules provided.
Numbers only, in %.

[
  {
    "molecular string": "N=C1NC(=O)/C(=C/c2ccc(-c3ccc(F)cc3)o2)S1",
    "assay endpoint": "kinase still bound, per cent of control",
    "recorded value": 29
  },
  {
    "molecular string": "N=C1NC(=O)/C(=C/c2ccc(-c3cncc4ccccc34)o2)S1",
    "assay endpoint": "kinase still bound, per cent of control",
    "recorded value": 26
  },
  {
    "molecular string": "COc1cc(N2CCN(C)CC2)ccc1Nc1ncc2c(n1)Nc1ccccc1NC2=O",
    "assay endpoint": "kinase still bound, per cent of control",
    "recorded value": 100
  },
  {
    "molecular string": "CN1C(=O)c2ccccc2N(C)c2nc(NS(=O)(=O)c3ccc(N)cc3)ncc21",
    "assay endpoint": "kinase still bound, per cent of control",
    "recorded value": 100
  },
  {
    "molecular string": "CN1CCN(c2ccc(C(=O)Nc3ncc4c(n3)N(C)c3ccccc3C(=O)N4C)cc2)CC1",
    "assay endpoint": "kinase still bound, per cent of control",
    "recorded value": 100
  }
]

Answer for every listed entry: what is its kinase still bound, per cent of control? The entries follow.
1. COc1cc(N2CCN(C)CC2)ccc1Nc1ncc2c(n1)N(C)c1ccccc1N(C)C2=O
2. COc1cc(N2CCC(O)CC2)ccc1Nc1ncc2c(n1)N1CCc3cccc(c31)C(=O)N2C
3. CSC1=NC(=O)/C(=C/c2c[nH]c(=O)c(-c3ccc(NS(C)(=O)=O)cc3)c2)S1
4. O=C1NC(=O)/C(=C/c2c[nH]c(=O)c(-c3ccc(N4CCNCC4)nc3)c2)S1
5. CN1C(=O)c2ccccc2N(C)c2nc(Nc3ccc(N4CCC(O)CC4)cc3)ncc21
6. COc1cc(N2CCN(C)CC2)ccc1Nc1ncc2c(n1)N(C)c1sccc1C(=O)N2C

Response line:
75
92
25
84
86
65

====

For each of the molecules below, state its kinase still bound, per cent of control.
experimental system: ZAP70 (human) (UniProt P43403)
Sequence (P43403 whole entry, looked up): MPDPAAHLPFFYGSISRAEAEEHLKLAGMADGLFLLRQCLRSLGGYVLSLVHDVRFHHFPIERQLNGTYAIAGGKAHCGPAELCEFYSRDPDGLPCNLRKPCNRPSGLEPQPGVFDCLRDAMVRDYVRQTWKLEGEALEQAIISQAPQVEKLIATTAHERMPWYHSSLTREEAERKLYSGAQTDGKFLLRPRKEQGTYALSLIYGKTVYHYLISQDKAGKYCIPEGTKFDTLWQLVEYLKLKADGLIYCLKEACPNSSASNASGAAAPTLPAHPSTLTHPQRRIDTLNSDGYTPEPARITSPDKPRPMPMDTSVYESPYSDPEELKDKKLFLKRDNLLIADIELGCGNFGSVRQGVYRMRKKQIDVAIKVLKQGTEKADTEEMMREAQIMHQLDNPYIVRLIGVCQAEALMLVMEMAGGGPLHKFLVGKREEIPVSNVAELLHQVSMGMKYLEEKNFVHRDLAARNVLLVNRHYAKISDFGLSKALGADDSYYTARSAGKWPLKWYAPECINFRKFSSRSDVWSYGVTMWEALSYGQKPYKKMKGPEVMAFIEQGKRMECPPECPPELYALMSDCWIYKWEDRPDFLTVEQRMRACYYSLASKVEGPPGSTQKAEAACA
assay: KINOMEscan competition binding
condition description: compound 10.0 µM
Please state the value followed by its unit.

The following molecules have reported results that may help.
[
  {
    "molecular string": "CSC1=NC(=O)/C(=C/c2ccc(-c3ccc(S(N)(=O)=O)cc3)o2)S1",
    "recorded value": "32%"
  },
  {
    "molecular string": "COc1cc(N2CCC(O)CC2)ccc1Nc1ncc2c(n1)N1CCc3cccc(c31)C(=O)N2C",
    "recorded value": "65%"
  },
  {
    "molecular string": "CN1CCN(c2ccc(C(=O)Nc3ncc4c(n3)N(C)c3ccccc3C(=O)N4C)cc2)CC1",
    "recorded value": "100%"
  },
  {
    "molecular string": "NS(=O)(=O)c1ccc(-c2ccc(/C=C3\\SC(=S)N(CC(=O)O)C3=O)o2)cc1",
    "recorded value": "21%"
  }
]

Query molecule follows.
Prompt line: Which kinase still bound, per cent of control is reported for this molecule? `COc1cc(C(N)=O)ccc1-c1ccc(/C=C2\SC(=N)NC2=O)o1`
Response line: 29%
